Recorded pIC50 for the following molecules
- TARGET ENTITY: Avi-KRAS G12R (1-169) GppNHp/RAF1 RBD-3xFLAG (52-151) (Homo sapiens, UniProt P01116, G12R)
- Construct: Avi-KRAS G12R (1-169)
- Sequence (P01116 1-169 isoform P01116-2 G12R): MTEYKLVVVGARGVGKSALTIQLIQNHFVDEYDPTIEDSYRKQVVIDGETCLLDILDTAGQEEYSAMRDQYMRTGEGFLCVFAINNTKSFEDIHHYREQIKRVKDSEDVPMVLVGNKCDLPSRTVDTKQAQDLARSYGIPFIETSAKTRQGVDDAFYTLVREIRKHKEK
- EXPERIMENT NOTES: Raf1-KRAS G12R-GppNHP disruption HTRF assay (Biological Example 1)
- Type: binding
- TEST CONDITIONS: KRAS G12R-GppNHp/RAF1 RBD HTRF
pIC50: −log10 of the molar value.

Some entries whose results are on file:
CC(=O)N1C[C@H](N(C)c2nc(OC[C@@]34CCCN3C[C@H](F)C4)nc3c(F)c(-c4ccc(F)c5sc(N)c(C#N)c45)c(C(F)(F)F)cc23)C[C@@H]1C	6.00 to 7.00
CCN(c1nc(OC[C@@]23CCCN2C[C@H](F)C3)nc2c(F)c(-c3ccc(F)c4sc(N)c(C#N)c34)c(C(F)(F)F)cc12)[C@@H]1CCN(C(=O)C2CC2)C1	6.00 to 7.00

Attention now turns to another entry.
Recall the recorded pIC50 for CCC(=O)N1CC[C@H](N(CC)c2nc(OC[C@@]34CCCN3C[C@H](F)C4)nc3c(F)c(-c4ccc(F)c5sc(N)c(C#N)c45)c(C(F)(F)F)cc23)C1 with Avi-KRAS G12R (1-169) GppNHp/RAF1 RBD-3xFLAG (52-151) (Homo sapiens, UniProt P01116, G12R) and state it.
> 7.00

====

Recorded pIC50 for the following compounds
- TARGET ENTITY: Avi-KRAS G12D (1-169) GppNHp/RAF1 RBD-3xFLAG (52-151) (Homo sapiens, UniProt P01116, G12D)
- Construct: Avi-KRAS G12D (1-169)
- Sequence (P01116 1-169 isoform P01116-2 G12D): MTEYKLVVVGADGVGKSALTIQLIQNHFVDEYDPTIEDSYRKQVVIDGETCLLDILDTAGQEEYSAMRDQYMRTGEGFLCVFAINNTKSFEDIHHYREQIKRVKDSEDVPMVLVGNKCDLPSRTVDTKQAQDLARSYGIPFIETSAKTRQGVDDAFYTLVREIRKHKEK
- EXPERIMENT NOTES: Raf1-KRAS G12D-GppNHP disruption HTRF assay (Biological Example 1)
- Format: binding
- TEST CONDITIONS: KRAS G12D-GppNHp/RAF1 RBD HTRF
pIC50: −log10 of the molar value.

C[C@@H]1[C@H](N(C)c2nc(OC[C@@]34CCCN3C[C@H](F)C4)nc3c(F)c(-c4ccc(F)c5sc(N)c(C#N)c45)c(C(F)(F)F)cc23)CCN1C(=O)C(F)F [Compound 458]	6.00 to 7.00

Recall the recorded pIC50 for CCN(c1nc(OC[C@@]23CCCN2C[C@H](F)C3)nc2c(F)c(-c3ccc(F)c4sc(N)c(C#N)c34)c(C(F)(F)F)cc12)[C@@H]1CC(=O)N(C)C1 [Compound 520] with Avi-KRAS G12D (1-169) GppNHp/RAF1 RBD-3xFLAG (52-151) (Homo sapiens, UniProt P01116, G12D) and state it.
6.00 to 7.00

Recall the recorded pIC50 for N#Cc1c(N)sc2c(F)ccc(-c3c(C(F)(F)F)cc4c(N5CC6OCC5C6F)nc(OC[C@@]56CCCN5C[C@H](F)C6)nc4c3F)c12 (stereo partly drawn) [Compound 531] with Avi-KRAS G12D (1-169) GppNHp/RAF1 RBD-3xFLAG (52-151) (Homo sapiens, UniProt P01116, G12D) and state it.
6.00 to 7.00

====

- TARGET ENTITY: Avi-KRAS WT (1-169) GppNHp/RAF1 RBD-3xFLAG (52-151) (Homo sapiens)
- Construct: Avi-KRAS WT (1-169)
- Sequence (P01116 1-169 isoform P01116-2): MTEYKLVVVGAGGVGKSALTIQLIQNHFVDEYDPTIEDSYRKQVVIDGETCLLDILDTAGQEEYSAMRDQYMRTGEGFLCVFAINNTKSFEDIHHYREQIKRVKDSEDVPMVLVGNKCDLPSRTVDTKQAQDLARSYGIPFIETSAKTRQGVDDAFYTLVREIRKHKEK
- EXPERIMENT NOTES: Raf1-KRAS WT-GppNHP disruption HTRF assay (Biological Example 1)
- Format: binding
- TEST CONDITIONS: KRAS WT, GppNHp-loaded; class symbols
VALUE TYPE: IC50

Some entries whose results are on file:
CCN(c1nc(OC[C@@]23CCCN2C[C@H](F)C3)nc2c(F)c(-c3ccc(F)c4sc(N)c(C#N)c34)c(C(F)(F)F)cc12)[C@@H]1CCN(C(=O)[C@H](C)OC)[C@@H]1C (atropisomer, axis not shown) [Compound 789]	< 100 nM
CCN(c1nc(OCC23CCCN2CC(F)C3)nc2c(F)c(-c3ccc(F)c4sc(N)c(C#N)c34)c(C(F)(F)F)cc12)C1CCN(C(=O)c2cccnc2)C1 (centres unmarked) [Compound 715]	< 100 nM
C/C=C/C(=O)N1CC[C@H](N(CC)c2nc(OC[C@@]34CCCN3C[C@H](F)C4)nc3c(F)c(-c4ccc(F)c5sc(N)c(C#N)c45)c(C(F)(F)F)cc23)C1 (atropisomer, axis not shown) [Compound 674]	< 100 nM

Need IC50 of CCN(c1nc(OC[C@@]23CCCN2C[C@H](F)C3)nc2c(F)c(-c3ccc(F)c4sc(N)c(C#N)c34)c(C(F)(F)F)cc12)[C@H]1CCN(C(=O)c2cocn2)C1 (atropisomer, axis not shown) [Compound 719] , thanks.
< 100 nM

Need IC50 of N#Cc1c(N)sc2c(F)ccc(-c3c(C(F)(F)F)cc4c(N5C[C@H]6[C@@H]5CCN6C(=O)C5CC5)nc(OC[C@@]56CCCN5C[C@H](F)C6)nc4c3F)c12 (atropisomer, axis not shown) [Compound 643] , thanks.
1000 to 10000 nM

Need IC50 of CCN(c1nc(OC[C@@]23CCCN2C[C@H](F)C3)nc2c(F)c(-c3ccc(F)c4sc(N)c(C#N)c34)c(C(F)(F)F)cc12)[C@H]1CCN(C(=O)[C@H]2CC23CC3)C1 (atropisomer, axis not shown) [Compound 772] , thanks.
< 100 nM

Need IC50 of CCN(CC)C(=O)N1CCC(N(CC)c2nc(OCC34CCCN3CC(F)C4)nc3c(F)c(-c4ccc(F)c5sc(N)c(C#N)c45)c(C(F)(F)F)cc23)C1 (centres unmarked) [Compound 572] , thanks.
< 100 nM

Need IC50 of CCOC(=O)N1CC[C@H](N(CC)c2nc(OC[C@@]34CCCN3C[C@H](F)C4)nc3c(F)c(-c4ccc(F)c5sc(N)c(C#N)c45)c(C(F)(F)F)cc23)C1 (atropisomer, axis not shown) [Compound 686] , thanks.
100 to 1000 nM
